system: SKOV3 cells; format: cell-based, human; settings: SKOV3, siTrkB transfected 48 hours, then cisplatin 24 hours; read-out: IC50 of cisplatin (survival)
pIC50: −log10 of the molar value.
measured metric: pIC50

[[record]]
molecule = "N.N.[Cl][Pt][Cl] [cisplatin]"
measured_metric = "pIC50"
experimental_result = "~4.70"


====

test system: OV-90 cells; format: cell-based, human; settings: 48 h
Ends that are not written are not given here.
measured metric: IC50

[[record]]
monomer_sequence = "RRIRPRPPRLPRPRPRPLPFPRPGIGTRFLCLPQSIYRSELNVYAFGEHILQISKYS [IRIS peptide]"
experimental_system = "OV-90 cells"
measured_metric = "IC50"
experimental_result = "~5 µM"


These measurements were taken from patent US9303069B2.
